These entries and their values trace back to patent US9884043B2.

tested system: HIS-tagged RORγ-LBD (Homo sapiens)
Construct: HIS-tagged RORγ-LBD was recombinantly expressed in SF9 cells using a baculovirus expression system; made in house; host or cells: SF9 cells, baculovirus; crude lysate used
Sequence (P51449 269-508 limits assumed): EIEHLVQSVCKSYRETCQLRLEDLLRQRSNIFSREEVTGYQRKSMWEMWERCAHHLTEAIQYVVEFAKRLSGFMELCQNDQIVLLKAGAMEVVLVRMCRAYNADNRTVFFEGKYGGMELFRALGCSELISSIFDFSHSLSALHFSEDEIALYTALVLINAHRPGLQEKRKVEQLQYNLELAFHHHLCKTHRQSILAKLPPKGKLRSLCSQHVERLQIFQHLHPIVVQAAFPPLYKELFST
assay details: TR-FRET assay (Protocol C), purified RORγ-LBD / biotinylated SRC1 LXXLL peptide
Type: biochemical
details: purified RORγ-LBD 3 nM, SRC1 peptide 100 nM, overnight at 4° C.
readout label: IC50

Examples with their reported IC50 follow.
O=C(O)c1ccc(-c2nn(C(=O)c3c(Cl)cccc3C(F)(F)F)c3cc(C(=O)N4CCC4)ccc23)cc1 [Example 25W] ... < 50 nM
O=C(O)c1ccc(-c2nn(C(=O)c3c(Cl)cccc3C(F)(F)F)c3cc(C(=O)N4CC(F)(F)C4)ccc23)cc1 [Example 25U] ... < 50 nM

What value of IC50 on HIS-tagged RORγ-LBD (Homo sapiens) does O=C(O)c1ccc(-c2nn(C(=O)c3c(Cl)cccc3C(F)(F)F)c3ccccc23)c(Cl)c1 [Example 24AS] have?
< 50 nM
